Test system: GFP(3TAG)
Format: cell-based, E. coli
Conditions: chromosomally integrated AARS; pAzF
Reported values of higher GFP(3TAG) production compared with the progenitor enzyme for individual entries
parameter: higher GFP(3TAG) production compared with the progenitor enzyme

molecule: pAzFRS.2.t1: pAcFRS variant E107T, F108Y, Q109M, R257G, SEQ ID NO: 14 (protein) MDEFEMIKRNTSEIISEEELREVLKKDEKSALIGFEPSGKIHLGHYLQIKKMIDLQNAGFDIIILLADLHAYLNQKGELDEIRKIGDYNKKVFEAMGLKAKYVYGSTYMLDKDYTLNVYRLALKTTLKRARRSMELIAREDENPKVAEVIYPIMQVNGCHYRGVDVAVGGMEQRKIHMLARELLPKKVVCIHNPVLTGLDGEGKMSSSKGNFIAVDDSPEEIRAKIKKAYCPAGVVEGNPIMEIAKYFLEYPLTIKGPEKFGGDLTVNSYEELESLFKNKELHPMRLKNAVAEELIKILEPIRKRL
val: ~25 fold
--
molecule: pAzFRS.1.t1: pAcFRS variant D158V, I159M, L162D, A167Y, R257G, SEQ ID NO: 11 (protein) MDEFEMIKRNTSEIISEEELREVLKKDEKSALIGFEPSGKIHLGHYLQIKKMIDLQNAGFDIIILLADLHAYLNQKGELDEIRKIGDYNKKVFEAMGLKAKYVYGSEFQLDKDYTLNVYRLALKTTLKRARRSMELIAREDENPKVAEVIYPIMQVNVMHYDGVDVYVGGMEQRKIHMLARELLPKKVVCIHNPVLTGLDGEGKMSSSKGNFIAVDDSPEEIRAKIKKAYCPAGVVEGNPIMMEIAKYFLEYPLTIKGPEKFGGDLTVNSYEELESLFKNKELHPMRLKNAVAEELIKILEPIRKRL
val: ~5.5 fold
--
molecule: pAzFRS.2: pAcFRS variant E107T, F108Y, Q109M, SEQ ID NO: 13 (protein) MDEFEMIKRNTSEIISEEELREVLKKDEKSALIGFEPSGKIHLGHYLQIKKMIDLQNAGFDIIILLADLHAYLNQKGELDEIRKIGDYNKKVFEAMGLKAKYVYGSTYMLDKDYTLNVYRLALKTTLKRARRSMELIAREDENPKVAEVIYPIMQVNGCHYRGVDVAVGGMEQRKIHMLARELLPKKVVCIHNPVLTGLDGEGKMSSSKGNFIAVDDSPEEIRAKIKKAYCPAGVVEGNPIMEIAKYFLEYPLTIKRPEKFGGDLTVNSYEELESLFKNKELHPMRLKNAVAEELIKILEPIRKRL
val: ~12 fold
--
molecule: pAzFRS.1: pAcFRS variant D158V, I159M, L162D, A167Y, SEQ ID NO: 10 (protein) MDEFEMIKRNTSEIISEEELREVLKKDEKSALIGFEPSGKIHLGHYLQIKKMIDLQNAGFDIIILLADLHAYLNQKGELDEIRKIGDYNKKVFEAMGLKAKYVYGSEFQLDKDYTLNVYRLALKTTLKRARRSMELIAREDENPKVAEVIYPIMQVNVMHYDGVDVYVGGMEQRKIHMLARELLPKKVVCIHNPVLTGLDGEGKMSSSKGNFIAVDDSPEEIRAKIKKAYCPAGVVEGNPIMEIAKYFLEYPLTIKRPEKFGGDLTVNSYEELESLFKNKELHPMRLKNAVAEELIKILEPIRKRL
val: ~3.5 fold
